Attribution: patent US8563714B2

Biological target: human FPRL2 (Homo sapiens)
Assay: Intracellular calcium measurements (FLIPR), agonistic activity in HEK293-hFPRL2-Gα16 cells
Conditions: Fluo-4 calcium FLIPR, normalized to GLY14-Humanin 100 nM
Experimental: The ALX receptor and FPRL2 agonistic activities of the compounds of formula (I) are determined in accordance with the following experimental method. Intracellular Calcium Measurements: Cells expressing recombinant human FPRL2 and the G-protein Gα16 (HEK293-hFPRL2-Gα16) were grown to 80% confluency in Growing Medium (GM). […] Changes in fluorescence were monitored before and after the addition of test compounds at lex=488 nm and lem=540 nm. […]
readout-type: EC50 (nM)

O=C(NCCCn1cccn1)[C@H]1[C@H](C(=O)Nc2ccc(Br)cc2)[C@@H]2C=C[C@H]1C21CC1 (racemic) [Example 37] = 1710
O=C(NCCCN1CCCC1)[C@H]1[C@H](C(=O)Nc2ccc(Br)cc2)[C@@H]2C=C[C@H]1C21CC1 (racemic) [Example 30] = 405
CC(=O)c1cccc(CNC(=O)[C@H]2[C@H](C(=O)NCCCCN3CCCC3)[C@H]3C=C[C@@H]2C32CC2)c1 (racemic) [Example 359] = 359
Cc1cc2ccccc2n1CCCNC(=O)[C@H]1[C@H](C(=O)NCCCCN2CCCC2)[C@H]2C=C[C@@H]1C21CC1 (racemic) [Example 155] = 91
CC(C)CCNC(=O)[C@H]1[C@H](C(=O)NCCCCN2CCCC2)[C@H]2C=C[C@@H]1C21CC1 (racemic) [Example 135] = 224
CNCCNC(=O)[C@H]1[C@H](C(=O)Nc2ccc(Br)cc2)[C@@H]2C=C[C@H]1C21CC1 (racemic) [Example 21] = 1690
Cc1nc(CCNC(=O)[C@H]2[C@H](C(=O)Nc3ccc(Br)cc3)[C@@H]3C=C[C@H]2C32CC2)[nH]c1C (relative stereo) [Example 64] = 68

###

Target: human ALX receptor (Homo sapiens, UniProt P25090)
Construct: expressed in transfected cells; host or cells: HEK293 (HEK293-hALXR-Gα16)
Sequence (P25090 1-351): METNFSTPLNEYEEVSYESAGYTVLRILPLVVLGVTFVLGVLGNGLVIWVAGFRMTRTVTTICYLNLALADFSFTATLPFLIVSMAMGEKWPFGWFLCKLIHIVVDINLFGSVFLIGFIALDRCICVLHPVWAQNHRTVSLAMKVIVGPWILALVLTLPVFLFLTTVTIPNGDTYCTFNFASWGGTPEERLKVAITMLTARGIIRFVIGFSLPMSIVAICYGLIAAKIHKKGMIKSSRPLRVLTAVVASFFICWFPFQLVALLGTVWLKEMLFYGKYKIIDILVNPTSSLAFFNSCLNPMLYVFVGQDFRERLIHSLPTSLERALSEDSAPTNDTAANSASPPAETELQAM
Experiment: Intracellular calcium measurements (FLIPR), agonistic activity in HEK293-hALXR-Gα16 cells
Format: cell-based
Details: Fluo-4 calcium FLIPR, normalized to WKYMVm 10 nM
readout-type: EC50

CC(C)Oc1ccccc1CNC(=O)[C@H]1[C@H](C(=O)NCCCCN2CCCC2)[C@H]2C=C[C@@H]1C21CC1 (racemic) [Example 372] = > 25000 nM
COc1ccc(NC(=O)[C@H]2[C@H](C(=O)NCCCCN3CCCC3)[C@H]3C=C[C@@H]2C32CC2)cc1 [Example 285] = 9 nM
NS(=O)(=O)c1ccc(CCNC(=O)[C@H]2[C@H](C(=O)NCCc3ccc(Cl)cc3)[C@@H]3C=C[C@H]2C32CC2)cc1 [Example 390] = > 25000 nM
Cc1nc(NC(=O)[C@H]2[C@H](C(=O)NCCCCN3CCCC3)[C@H]3C=C[C@@H]2C32CC2)sc1C (racemic) [Example 369] = > 25000 nM
NCCCCCNC(=O)[C@H]1[C@H](C(=O)Nc2ccc(Br)cc2)[C@H]2C=C[C@@H]1C21CC1 (relative stereo) [Example 340] = 30 nM

###

Biological target: UniProt P25089
Sequence (P25089 1-353): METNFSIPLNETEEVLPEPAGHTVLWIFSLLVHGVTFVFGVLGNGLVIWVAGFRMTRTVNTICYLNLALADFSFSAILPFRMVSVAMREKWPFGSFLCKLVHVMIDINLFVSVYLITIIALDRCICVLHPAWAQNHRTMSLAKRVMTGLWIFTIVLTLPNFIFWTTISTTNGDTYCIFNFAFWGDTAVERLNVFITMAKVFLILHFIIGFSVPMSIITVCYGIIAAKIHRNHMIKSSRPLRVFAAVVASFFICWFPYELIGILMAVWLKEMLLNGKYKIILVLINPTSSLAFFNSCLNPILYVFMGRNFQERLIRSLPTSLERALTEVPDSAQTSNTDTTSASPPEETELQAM
Experiment: Intracellular calcium measurements (FLIPR), agonistic activity in HEK293-hFPRL2-Gα16 cells
Conditions: Fluo-4 calcium FLIPR, normalized to GLY14-Humanin 100 nM
pEC50: −log10 of the molar value.
readout-type: pEC50

O=C(N[C@H]1CC[C@H](O)CC1)[C@H]1[C@H](C(=O)Nc2ccc(Br)cc2)[C@@H]2C=C[C@H]1C21CC1 (racemic) [Example 23] = < 4.60
NC(=O)CCNC(=O)[C@H]1[C@H](C(=O)Nc2ccc(Cl)nc2)[C@@H]2C=C[C@H]1C21CC1 [Example 281] = < 4.60
NC(=O)CCNC(=O)[C@H]1[C@H](C(=O)Nc2ncc(Br)s2)[C@@H]2CC[C@H]1C21CC1 [Example 239] = < 4.60
